ASSAY METHOD TEXT: Liver microsomes stability, human
CONDITIONS USED: human, pooled liver microsomes
Kindly state CLint scaled at 2 μM for each of the entries shown.

Examples with their reported CLint scaled at 2 μM follow.
1. CN(C)CCC1CNc2ccc(F)cc21 (stereo not shown) = 1.89 mL/min/kg
2. CN(C)CCC1CNc2ccccc21 (stereo not shown) = 16.2 mL/min/kg
3. COc1ccc2c(c1)C(CCN(C)C)CN2 (stereo not shown) = 44.5 mL/min/kg

Then there is this compound:
-- ask What value of CLint scaled at 2 μM has been reported for the following compound? [2H]C([2H])([2H])Oc1ccc2c(c1)C(CCN(C)C)CN2 (stereo not shown)
-- reply 32.6 mL/min/kg
